# ASSAYED SYSTEM: menin-MLL interaction (Homo sapiens)
# Sequence (O00255 whole entry): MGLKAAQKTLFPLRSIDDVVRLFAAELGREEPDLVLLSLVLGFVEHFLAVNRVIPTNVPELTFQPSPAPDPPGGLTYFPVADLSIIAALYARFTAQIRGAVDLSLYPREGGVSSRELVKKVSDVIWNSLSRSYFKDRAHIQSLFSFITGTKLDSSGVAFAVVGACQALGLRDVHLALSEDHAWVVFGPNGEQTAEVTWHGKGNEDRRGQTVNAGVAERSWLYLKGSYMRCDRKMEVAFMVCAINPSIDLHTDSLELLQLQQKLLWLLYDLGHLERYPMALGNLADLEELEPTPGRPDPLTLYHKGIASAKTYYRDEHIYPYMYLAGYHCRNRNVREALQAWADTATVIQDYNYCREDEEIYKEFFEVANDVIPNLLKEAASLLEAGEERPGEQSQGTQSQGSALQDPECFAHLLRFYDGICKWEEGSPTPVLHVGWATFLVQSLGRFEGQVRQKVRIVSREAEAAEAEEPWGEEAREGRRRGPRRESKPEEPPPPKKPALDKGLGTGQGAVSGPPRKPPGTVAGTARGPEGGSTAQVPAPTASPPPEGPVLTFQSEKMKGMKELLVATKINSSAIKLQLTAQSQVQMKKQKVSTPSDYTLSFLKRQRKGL
# TEST: Fluorescence polarization (FP) competition assay of the menin-MLL interaction
# DETAILS: inhibition of the menin-MLL interaction; read-out: IC50 values for Table 1 inhibitors of menin
For each record, write down the corresponding IC50.

In plain terms, C=CC(=O)Nc1ccc(CCn2c(C#N)cc3c(C)c(CN4CCC(Nc5ncnc6sc(CC(F)(F)F)cc56)CC4)ccc32)cc1C#N [Compound 194] has a documented IC50 of 30 to 100 nM

C=CC(=O)N1CCC(Cn2c(C#N)cc3c(C)c(CN4CCC(Nc5ncnc6sc(CC(F)(F)F)cc56)CC4)ccc32)CC1 [Compound 233] yielded IC50 of 30 to 100 nM

Entry C=CS(=O)(=O)NC1CCN(CCn2c(C#N)cc3c(C)c(CN4CCC(Nc5ncnc6sc(CC(F)(F)F)cc56)CC4)ccc32)CC1 [Compound 232] ; IC50 = < 30 nM

The compound identified as Cc1c(CN2CCC(Nc3ncnc4sc(CC(F)(F)F)cc34)CC2)ccc2c1cc(C#N)n2CCN1CCC2(CCNC2)CC1 [Compound 169] registered its IC50 at 30 to 100 nM

Lab book: IC50 of C=CC(=O)N[C@H]1CCN(CCn2c(C#N)cc3c(C)c(CN4CCC(Nc5ncnc6sc(CC(F)(F)F)cc56)CC4)ccc32)C1 [Compound 31] noted as < 30 nM

Record summary for C=CC(=O)NN1CCN(CCn2c(C#N)cc3c(C)c(CN4CCC(Nc5ncnc6sc(CC(F)(F)F)cc56)CC4)ccc32)CC1 [Compound 94] : reported IC50 = 30 to 100 nM

The compound listed as Cc1c(CN2CCC(Nc3ncnc4sc(CC(F)(F)F)cc34)CC2)ccc2c1cc(C#N)n2CCc1cccc(N)c1 [Compound 189] shows IC50 equal to 30 to 100 nM

For reference, reported IC50 for C=CC(=O)NC1CCN(CCn2c(C#N)cc3cc(CN4CCC(Nc5ncnc6sc(CC(F)(F)F)cc56)CC4)c(O)cc32)CC1 [Compound 93] stands at < 30 nM

Query C=CC(=O)Nc1ccc(CCn2c(C#N)cc3c(C)c(CN4CCC(Nc5ncnc6sc(CC(F)(F)F)cc56)CC4)ccc32)cc1P(C)(C)=O [Compound 199] yields IC50 of < 30 nM
